# Tested on: HCV replicon 1AQ30D
# EXPERIMENT: microbe, parasite or virus in culture
# Format: cell-based, Hepatitis C virus (HCV)
# CONDITION_LABEL: Hepatitis C virus, read-out: 1A Q30D IC50 (nM), replicon 1AQ30D; Replicon Assay B
# Experimental: In an alternate assay (“Replicon Assay B”), 1000 cells were seeded per well in a 384-well collagen coated black plate from Greiner bio-one (Cat #781946) in 5% FBS. Inhibitors of this invention were added at 24 h post-seeding, and the plates were incubated for 3 days. […] HCV replicon RNA level was measured by real-time PCR using the RNA-to-CT kit from Applied Biosystem (Cat #4392656) and genotype-specific primers and probes. […]
MEASURE: IC50

| COMPOUND | MEASURE | MEASURED |
| --- | --- | --- |
| COC(=O)NC(C(=O)N1CCC[C@H]1c1ncc(-c2cc(F)c3c(c2)OC(c2ccc(C4CCC4)s2)n2c-3cc3cc(-c4cnc([C@@H]5CCCN5C(=O)[C@@H](NC(=O)OC)C5CCOCC5)[nH]4)ccc32)[nH]1)C(C)(C)F (stereo partly shown) [Compound 250] | IC50 | 0.013 nM |
| COC(=O)N[C@H](C(=O)N1CCC[C@H]1c1ncc(-c2cc(F)c3c(c2)OC(c2ccc(C(F)F)s2)n2c-3cc3cc(-c4cnc([C@@H]5CCCN5C(=O)[C@@H](NC(=O)OC)C(C)C)[nH]4)ccc32)[nH]1)C(C)C (single isomer, unassigned) | IC50 | 17.1 nM |
| COC(=O)NC(C(=O)N1CCC[C@H]1c1ncc(-c2ccc3c(c2)cc2n3C(c3ccc(C(C)C)s3)Oc3cc(-c4cnc([C@@H]5CCCN5C(=O)[C@@H](NC(=O)OC)C(C)C)[nH]4)cc(C)c3-2)[nH]1)C1C[C@@H](C)O[C@@H](C)C1 (single isomer, unassigned) | IC50 | 0.0759 nM |
| CCc1ccc(C2Oc3cc(-c4cnc([C@@H]5CCCN5C(=O)[C@@H](NC(=O)OC)C(C)C)[nH]4)cc(F)c3-c3cc4cc(-c5cnc([C@@H]6CCCN6C(=O)[C@H](NC(=O)OC)C6C[C@@H](C)O[C@@H](C)C6)[nH]5)ccc4n32)s1 (stereo partly shown) | IC50 | 0.057 nM |
